Organism: Homo sapiens
experiment_notes: Ratio of IC50 for inhibition of recombinant AKR1C4 (unknown origin) inhibition of recombinant AKR1C3 (unknown origin)
result_type: Ratio IC50

Here's what some known entries look like.
- smiles_str: "Cc1ccc(NC(=O)c2cc3cccc(O)c3oc2=N)cc1"
  Ratio IC50: "> 370"
- smiles_str: "N=c1oc2c(O)cccc2cc1C(=O)Nc1cccc(F)c1"
  Ratio IC50: "> 340"
- smiles_str: "N=c1oc2c(O)cccc2cc1C(=O)Nc1ccccc1C(F)(F)F"
  Ratio IC50: "> 500"

Query: Using known records, supply Ratio IC50 for N=c1oc2c(O)cccc2cc1C(=O)Nc1ccc(F)cc1
Reply: > 400

* * *

Species on record: Homo sapiens
experiment_notes: Ratio of IC50 for inhibition of recombinant AKR1C1 (unknown origin) inhibition of recombinant AKR1C3 (unknown origin)
result_type: Ratio IC50

- smiles_str: "N=c1oc2c(O)cccc2cc1C(=O)Nc1cccc(Cl)c1"
  result_type: "Ratio IC50"
  val: "> 220"

Query: Report measured Ratio IC50; entry is N=c1oc2c(O)cccc2cc1C(=O)Nc1cccc(F)c1
Reply: > 340

Query: Look up and report measured Ratio IC50 for this entry: N=c1oc2c(O)cccc2cc1C(=O)Nc1ccc(F)cc1
Reply: 240

Query: Provide one value: measured Ratio IC50 of Cc1ccc(NC(=O)c2cc3cccc(O)c3oc2=N)cc1
Reply: > 370

Query: Supply reported Ratio IC50 belonging to this compound: N=c1oc2c(O)cccc2cc1C(=O)Nc1ccccc1Cl
Reply: > 180

Query: Give the value of Ratio IC50 reported for the following: N=c1oc2c(O)cccc2cc1C(=O)Nc1ccccc1C(F)(F)F
Reply: > 500

Query: Entry CCc1cccc(NC(=O)c2cc3cccc(O)c3oc2=N)c1 needs its Ratio IC50 filled in; supply it.
Reply: > 300

* * *

experimental_system: Aldo-keto reductase family 1 member C3 (Homo sapiens, UniProt P42330)
Sequence (P42330 whole entry): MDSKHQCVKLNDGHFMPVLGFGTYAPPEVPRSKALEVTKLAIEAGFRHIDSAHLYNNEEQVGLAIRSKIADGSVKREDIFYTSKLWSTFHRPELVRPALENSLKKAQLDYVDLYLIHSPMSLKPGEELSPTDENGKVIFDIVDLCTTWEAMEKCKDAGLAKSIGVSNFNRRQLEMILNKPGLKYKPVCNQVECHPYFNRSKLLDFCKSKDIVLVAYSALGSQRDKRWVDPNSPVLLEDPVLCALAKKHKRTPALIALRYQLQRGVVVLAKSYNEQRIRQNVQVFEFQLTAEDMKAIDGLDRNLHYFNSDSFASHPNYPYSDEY
experiment_notes: Inhibition of recombinant AKR1C3 (unknown origin) assessed as reduction in S-tetralol-induced dehydrogenase activity by measuring NADPH level
Reported pIC50 values for the following molecules.
The scale used: pIC50 is minus the common logarithm of the concentration in molar units.

- smiles_str: "CCc1ccccc1NC(=O)c1cc2cccc(O)c2oc1=N"
  pIC50: 7.68
- smiles_str: "N=c1oc2c(O)cccc2cc1C(=O)Nc1cc(F)c(F)c(F)c1"
  pIC50: 7.33
- smiles_str: "N=c1oc2c(O)cccc2cc1C(=O)Nc1cccc(C(F)(F)F)c1"
  pIC50: 7.30
- smiles_str: "CCc1cccc(NC(=O)c2cc3cccc(O)c3oc2=N)c1"
  pIC50: 7.47
- smiles_str: "N=c1oc2c(O)cccc2cc1C(=O)Nc1ccccc1Cl"
  pIC50: 7.25
- smiles_str: "N=c1oc2c(O)cccc2cc1C(=O)Nc1ccc(C(F)(F)F)cc1C(F)(F)F"
  pIC50: 7.24
- smiles_str: "CC(C)c1cccc(NC(=O)c2cc3cccc(O)c3oc2=N)c1"
  pIC50: 7.33
- smiles_str: "Cc1ccc(NC(=O)c2cc3cccc(O)c3oc2=N)cc1"
  pIC50: 7.57

Query: Using the record for CCc1ccc(NC(=O)c2cc3cccc(O)c3oc2=N)cc1 , state its measured pIC50.
Reply: 7.35

Query: Note down pIC50 recorded for N=c1oc2c(O)cccc2cc1C(=O)Nc1cccc(O)c1
Reply: 7.22

* * *

The following compounds have recorded log10 IC50 on Carbonyl reductase [NADPH] 1 (Homo sapiens).
Sequence (P16152 whole entry): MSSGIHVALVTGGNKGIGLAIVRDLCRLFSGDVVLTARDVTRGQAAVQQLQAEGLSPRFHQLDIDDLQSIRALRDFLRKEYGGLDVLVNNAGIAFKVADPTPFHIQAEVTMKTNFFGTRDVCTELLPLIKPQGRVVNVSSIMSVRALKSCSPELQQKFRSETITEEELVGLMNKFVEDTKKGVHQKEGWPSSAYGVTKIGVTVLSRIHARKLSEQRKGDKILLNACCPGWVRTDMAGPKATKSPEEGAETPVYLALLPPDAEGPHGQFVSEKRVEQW
Hello, just confirming the data are log10 of IC50 with units of nM.

Worked cases, answers included:
- smiles_str: "CCc1cccc(NC(=O)c2cc3cccc(O)c3oc2=N)c1"
  log10 IC50: 2.40
- smiles_str: "N=c1oc2c(O)cccc2cc1C(=O)Nc1cccc(Cl)c1"
  log10 IC50: 2.08
- smiles_str: "N=c1oc2c(O)cccc2cc1C(=O)Nc1ccc(F)cc1"
  log10 IC50: 2.64

Query: Look up and report measured log10 IC50 (Carbonyl reductase [NADPH] 1 (Homo sapiens)) for the following compound: Cc1ccc(NC(=O)c2cc3cccc(O)c3oc2=N)cc1
Reply: 2.43

Query: Provide log10 IC50, tested on Carbonyl reductase [NADPH] 1 (Homo sapiens), for N=c1oc2c(O)cccc2cc1C(=O)Nc1ccccc1C(F)(F)F .
Reply: 1.88

Query: Under Carbonyl reductase [NADPH] 1 (Homo sapiens), report log10 IC50 for N=c1oc2c(O)cccc2cc1C(=O)Nc1ccccc1Cl
Reply: 1.53

Query: Send back Carbonyl reductase [NADPH] 1 (Homo sapiens) log10 IC50 of N=c1oc2c(O)cccc2cc1C(=O)Nc1cccc(F)c1 only.
Reply: 2.57

* * *

The reader will find reported Ratio IC50 values listed item by item below.
Species: Homo sapiens
experiment_notes: Ratio of IC50 for inhibition of CBR1 (unknown origin) inhibition of recombinant AKR1C3 (unknown origin)
No unit in the answer, please; the number alone is enough.

- smiles_str: "CCc1cccc(NC(=O)c2cc3cccc(O)c3oc2=N)c1"
  val: 7
- smiles_str: "N=c1oc2c(O)cccc2cc1C(=O)Nc1ccc(F)cc1"
  val: 18
- smiles_str: "N=c1oc2c(O)cccc2cc1C(=O)Nc1ccccc1C(F)(F)F"
  val: 4
- smiles_str: "N=c1oc2c(O)cccc2cc1C(=O)Nc1cccc(Cl)c1"
  val: 3

Query: Supply measured Ratio IC50 of N=c1oc2c(O)cccc2cc1C(=O)Nc1cccc(F)c1 in your reply.
Reply: 13

Query: Answer with reported Ratio IC50 of Cc1ccc(NC(=O)c2cc3cccc(O)c3oc2=N)cc1
Reply: 10

Query: For N=c1oc2c(O)cccc2cc1C(=O)Nc1ccccc1Cl , write its Ratio IC50.
Reply: 0.6

* * *

Recorded Ratio IC50 by entry
Species: Homo sapiens
experiment_notes: Ratio of IC50 for inhibition of recombinant AKR1C2 (unknown origin) inhibition of recombinant AKR1C3 (unknown origin)

Some compounds with recorded Ratio IC50:
- smiles_str: "CCc1cccc(NC(=O)c2cc3cccc(O)c3oc2=N)c1"
  Ratio IC50: "> 300"
- smiles_str: "N=c1oc2c(O)cccc2cc1C(=O)Nc1ccc(F)cc1"
  Ratio IC50: "> 400"
- smiles_str: "N=c1oc2c(O)cccc2cc1C(=O)Nc1ccccc1Cl"
  Ratio IC50: "> 180"
- smiles_str: "Cc1ccc(NC(=O)c2cc3cccc(O)c3oc2=N)cc1"
  Ratio IC50: "> 370"
- smiles_str: "N=c1oc2c(O)cccc2cc1C(=O)Nc1cccc(F)c1"
  Ratio IC50: "> 340"
- smiles_str: "N=c1oc2c(O)cccc2cc1C(=O)Nc1cccc(Cl)c1"
  Ratio IC50: "> 220"

Query: Give reported Ratio IC50 value for N=c1oc2c(O)cccc2cc1C(=O)Nc1ccccc1C(F)(F)F
Reply: > 500

* * *

experimental_system: Aldo-keto reductase family 1 member C3 (Homo sapiens, UniProt P42330)
experiment_notes: Inhibition of recombinant AKR1C3 (unknown origin) assessed as reduction in S-tetralol-induced dehydrogenase activity by measuring NADPH level
Quick reference for pIC50 among some molecules
A value of pIC50 is the negative decimal logarithm of a concentration given in moles per litre.

Example entries begin here.
- smiles_str: "N=c1oc2cccc(O)c2cc1C(=O)Nc1ccc(F)cc1"
  pIC50: 6.43
- smiles_str: "N=c1oc2c(O)cccc2cc1C(=O)Nc1ccccc1F"
  pIC50: 7.19
- smiles_str: "N=c1oc2c(O)cccc2cc1C(=O)Nc1cccc(F)c1"
  pIC50: 7.54

Query: State its pIC50: N=c1oc2c(O)cccc2cc1C(=O)Nc1ccc(C(F)(F)F)cc1
Reply: 7.62

* * *

Species on record: Homo sapiens
experiment_notes: Ratio of IC50 for inhibition of recombinant AKR1C4 (unknown origin) inhibition of recombinant AKR1C3 (unknown origin)
Form field: Ratio IC50 (one value per entry).

Take a look at these entries with their results.
- smiles_str: "N=c1oc2c(O)cccc2cc1C(=O)Nc1cccc(Cl)c1"
  val: "> 220"
- smiles_str: "CCc1cccc(NC(=O)c2cc3cccc(O)c3oc2=N)c1"
  val: "> 300"

Below: the item to evaluate.
Query: For the compound N=c1oc2c(O)cccc2cc1C(=O)Nc1ccccc1Cl , give its reported Ratio IC50.
Reply: > 180

* * *

experimental_system: Aldo-keto reductase family 1 member C3 (Homo sapiens)
experiment_notes: Inhibition of recombinant AKR1C3 (unknown origin) assessed as reduction in S-tetralol-induced dehydrogenase activity by measuring NADPH level
Quick rule for you: IC50 under 50 nM gets TRUE, anything else gets FALSE.

Worked cases, answers included:
- smiles_str: "N=c1oc2ccc(O)cc2cc1C(=O)Nc1ccc(F)cc1"
  experimental_system: "Aldo-keto reductase family 1 member C3 (Homo sapiens)"
  cat: "FALSE"
- smiles_str: "N=c1oc2c(O)cccc2cc1C(=O)Nc1ccc(O)cc1"
  experimental_system: "Aldo-keto reductase family 1 member C3 (Homo sapiens)"
  cat: "FALSE"
- smiles_str: "N=c1oc2c(O)cccc2cc1C(=O)Nc1ccccc1O"
  experimental_system: "Aldo-keto reductase family 1 member C3 (Homo sapiens)"
  cat: "FALSE"
- smiles_str: "CC(C)c1ccccc1NC(=O)c1cc2cccc(O)c2oc1=N"
  experimental_system: "Aldo-keto reductase family 1 member C3 (Homo sapiens)"
  cat: "TRUE"
- smiles_str: "N=c1oc2c(O)cccc2cc1C(=O)Nc1ccc(F)cc1"
  experimental_system: "Aldo-keto reductase family 1 member C3 (Homo sapiens)"
  cat: "TRUE"
- smiles_str: "N=c1oc2c(O)cccc2cc1C(=O)Nc1ccc(F)c(F)c1"
  experimental_system: "Aldo-keto reductase family 1 member C3 (Homo sapiens)"
  cat: "FALSE"
- smiles_str: "Cc1cccc(NC(=O)c2cc3cccc(O)c3oc2=N)c1"
  experimental_system: "Aldo-keto reductase family 1 member C3 (Homo sapiens)"
  cat: "FALSE"
- smiles_str: "N=c1oc2c(O)cccc2cc1C(=O)Nc1ccccc1C(F)(F)F"
  experimental_system: "Aldo-keto reductase family 1 member C3 (Homo sapiens)"
  cat: "TRUE"
- smiles_str: "N=c1oc2c(O)cccc2cc1C(=O)Nc1cccc(Cl)c1"
  experimental_system: "Aldo-keto reductase family 1 member C3 (Homo sapiens)"
  cat: "TRUE"
- smiles_str: "COc1cccc2cc(C(=O)Nc3ccc(F)cc3)c(=N)oc12"
  experimental_system: "Aldo-keto reductase family 1 member C3 (Homo sapiens)"
  cat: "FALSE"

Query: Dear colleague, could you confirm whether IC50 of N=c1oc2c(O)cccc2cc1C(=O)Nc1ccc(Cl)cc1 falls below 50 nM? Thanks.
Reply: FALSE

Query: Given the entry Cc1ccccc1NC(=O)c1cc2cccc(O)c2oc1=N , would its reported IC50 be below 50 nM?
Reply: FALSE

Query: Decide: IC50 of N=c1oc2c(O)cccc2cc1C(=O)Nc1ccccc1 strictly below 50 nM?
Reply: TRUE
